Test system: HT-29
Assay: Inhibition of VEGF mRNA expression in human HT-29 cells assessed as VEGF mRNA level at 50 nM incubated for 48 hrs by RT-PCR method relative to control
Format: functional
Design: scale not given: the % may be the effect or the level left
measurementName: Activity (%)
Report only the number, with the unit % understood.

Exercise: What measured Activity is associated with COc1cc2c(c(OC)c1OC)-c1ccc(OC)c(=O)cc1[C@@H](NC(=O)CCCCCCCCCCC(=O)OCCCCC[C@@H]1CC=CC(=O)O1)CC2 on HT-29?
Key: 36

Exercise: Provide value of Activity for this record tested with HT-29: COc1cc2c(c(OC)c1OC)-c1ccc(OC)c(=O)cc1[C@@H](NC(C)=O)CC2
Key: 48

Exercise: Please state recorded Activity (tested on HT-29) of CO[C@H](CCO)C[C@H](O)C[C@@H]1CC=CC(=O)O1
Key: 90

Exercise: Query for HT-29: what Activity does the record show for COc1cc2c(c(OC)c1OC)-c1ccc(OC)c(=O)cc1[C@@H](NC(=O)CCCCCCCCCCC(=O)OCC[C@H](C[C@H](O)C[C@@H]1CC=CC(=O)O1)OC)CC2 ?
Key: 51
